B1: PLK2 (parent)
chain: MELLRTITYQPAASTKMCEQALGK

# Variants of: B1
# Assay details: protein stability index of a GFP-peptide fusion (GPS, HEK-293T) (PSI 1-6); higher = more stable;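 note: lentivirally expressed fusions sorted by FACS into six bins by GFP to DsRed ratio, PSI derived from sequencing read proportions per bin multiplied by bin number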
# Run parameters: c terminus: a fixed tail appended
Outcome measure: protein stability index
Write the number on its own, no unit after it.

// lookup protein stability index for MELLRTITYQPAASTKMCEQAIGK 2.42

Bench note: what protein stability index did MELLRTITYQPAASTKMCEQALKK show? 2.94

Consider the variant shown here: MALLRTITYQPAASTKMCEQALGK What is its recorded protein stability index? 1.79

Which protein stability index is reported for this variant? MELLRTITYQPAASTKMDEQALGK 1.94

What does the data say about its protein stability index? Entry: MELLRTITYRPAASTKMCEQALGK 2.97

# lookup: protein stability index of MELLRTITYQPAASTKMCEQALGP 2.65

Form field: reported protein stability index of MELLRTITTQPAASTKMCEQALGK 2.29

Please report the recorded protein stability index for EELLRTITYQPAASTKMCEQALGK . 4.07

Given MELLRTITYQPAAWTKMCEQALGK , state its recorded protein stability index. 3.03

Given MEALRTITYQPAASTKMCEQALGK , state its recorded protein stability index. 2.82

Could you tell me which protein stability index is on file for MELLRYITYQPAASTKMCEQALGK ? 1.6

Entry MELLRTISYQPAASTKMCEQALGK : reported protein stability index = ? 2.21

Entry MELLRTITYQPAASTKMCEQALGA : reported protein stability index = ? 2.89

Which protein stability index is reported for this variant? MELLRTITYQPAASTKMCEEALGK 1.78

Tell me the measured protein stability index of MELLRTITYQHAASTKMCEQALGK , please. 2.39

State the recorded protein stability index for this entry: MELLRTITYQPASSTKMCEQALGK 3.29

// protein stability index lookup, key: MELLRTLTYQPAASTKMCEQALGK 2.03

Give the measured protein stability index of MELLRTITEQPAASTKMCEQALGK . 2.05

Would you mind telling me what protein stability index value was observed for MELLRTITYQPAASTKMCEQALDK ? 1.93

Data request, read-out protein stability index, for MELLRTITYQPTASTKMCEQALGK 2.81

Could you share which protein stability index value was measured for MELLRTITYDPAASTKMCEQALGK ? 2.11

# query: protein stability index of entry MELLRTITYQPAASTKECEQALGK 1.86
